Molecular target: 3-oxo-5-alpha-steroid 4-dehydrogenase 2 (Homo sapiens, UniProt P31213)
Sequence (P31213 whole entry): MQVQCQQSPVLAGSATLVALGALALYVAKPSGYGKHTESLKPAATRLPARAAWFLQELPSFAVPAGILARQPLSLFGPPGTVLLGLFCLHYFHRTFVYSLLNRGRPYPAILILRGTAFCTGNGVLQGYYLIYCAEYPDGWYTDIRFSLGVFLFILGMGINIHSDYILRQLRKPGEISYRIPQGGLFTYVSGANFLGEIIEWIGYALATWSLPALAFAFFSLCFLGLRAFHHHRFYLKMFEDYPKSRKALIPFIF
Test: In vitro inhibition of human steroid 5-alpha-reductase type 2 in SW-13-transfected cells
pIC50: −log10 of the molar value.
Below, each entry is listed alongside its reported pIC50.

{"compound": "COc1ccc(N(C(=O)c2ccccc2)[C@H]2CCC3C4CC[C@H]5N(C)C(=O)CC[C@]5(C)C4CC[C@@]32C)cc1 (stereo not given in full)", "pIC50": "< 6.00"}
{"compound": "CCCCN(C(C)=O)[C@H]1CCC2C3CC[C@H]4N(C)C(=O)CC[C@]4(C)C3CC[C@@]21C (stereo not given in full)", "pIC50": "< 7.00"}
{"compound": "CCCCCN(C(=O)CCCC)[C@H]1CCC2C3CC[C@H]4N(C)C(=O)CC[C@]4(C)C3CC[C@@]21C (stereo not given in full)", "pIC50": "< 7.00"}

Exam item: Under 3-oxo-5-alpha-steroid 4-dehydrogenase 2 (Homo sapiens, UniProt P31213): pIC50 value of CCCCN(C=O)[C@H]1CCC2C3CC[C@H]4N(C)C(=O)CC[C@]4(C)C3CC[C@@]21C (stereo not given in full) ?
Marked response: < 7.00

Exam item: How about CN1C(=O)CC[C@]2(C)C3CC[C@@]4(C)C(CC[C@@H]4N(C=O)C4CCCCC4)C3CC[C@@H]12 (stereo not given in full) ?
Marked response: < 7.00

###

Biological target: UniProt P18405
Sequence (P18405 whole entry): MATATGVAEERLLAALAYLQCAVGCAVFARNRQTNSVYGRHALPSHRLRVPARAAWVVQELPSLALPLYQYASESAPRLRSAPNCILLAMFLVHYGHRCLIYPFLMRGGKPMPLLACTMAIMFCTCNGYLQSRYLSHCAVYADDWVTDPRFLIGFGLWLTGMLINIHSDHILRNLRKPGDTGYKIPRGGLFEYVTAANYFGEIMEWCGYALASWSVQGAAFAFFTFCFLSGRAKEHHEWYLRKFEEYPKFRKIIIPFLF
Test: In vitro inhibition of human steroid 5-alpha-reductase type I in Du-145 cells
endpoint.label: IC50 (nM)

Please review the entries below; each comes with its answer.
{"compound": "CCN(CC)C(=O)[C@H]1CC[C@H]2[C@@H]3CC[C@H]4N(C)C(=O)CC[C@]4(C)[C@H]3CC[C@]12C", "IC50, nM": 4.14}
{"compound": "CC(C)C(=O)N(c1ccc([N+](=O)[O-])c(C(F)(F)F)c1)[C@H]1CCC2C3CC[C@H]4N(C)C(=O)CC[C@]4(C)C3CC[C@@]21C (some centres undefined)", "IC50, nM": 59.8}
{"compound": "CC(C)(C)NC(=O)[C@H]1CC[C@H]2[C@@H]3CC[C@H]4NC(=O)C=C[C@]4(C)[C@H]3CC[C@]12C [FINASTERIDE]", "IC50, nM": 26.3}
{"compound": "CCCCCCCCN(C=O)[C@H]1CCC2C3CC[C@H]4N(C)C(=O)CC[C@]4(C)C3CC[C@@]21C (some centres undefined)", "IC50, nM": 16.9}
{"compound": "CCCN(C=O)[C@H]1CCC2C3CC[C@H]4N(C)C(=O)CC[C@]4(C)C3CC[C@@]21C (some centres undefined)", "IC50, nM": 5.08}
{"compound": "COc1ccc(N(C(=O)C(C)C)[C@H]2CCC3C4CC[C@H]5N(C)C(=O)CC[C@]5(C)C4CC[C@@]32C)cc1 (some centres undefined)", "IC50, nM": 5.44}
{"compound": "CCCCCCN(C=O)[C@H]1CCC2C3CC[C@H]4N(C)C(=O)CC[C@]4(C)C3CC[C@@]21C (some centres undefined)", "IC50, nM": 7.25}
{"compound": "CC(C)N(C=O)[C@H]1CCC2C3CC[C@H]4N(C)C(=O)CC[C@]4(C)C3CC[C@@]21C (some centres undefined)", "IC50, nM": 9.53}
{"compound": "CN1C(=O)CC[C@]2(C)C3CC[C@@]4(C)C(CC[C@@H]4N(C=O)Cc4ccccc4)C3CC[C@@H]12 (some centres undefined)", "IC50, nM": 5.63}
{"compound": "CCCCCN(C(=O)c1ccccc1)[C@H]1CCC2C3CC[C@H]4N(C)C(=O)CC[C@]4(C)C3CC[C@@]21C (some centres undefined)", "IC50, nM": 3.22}

I = CCCCCN(C(=O)CC)[C@H]1CCC2C3CC[C@H]4N(C)C(=O)CC[C@]4(C)C3CC[C@@]21C (some centres undefined)
II = CN(C=O)[C@H]1CCC2C3CC[C@H]4NC(=O)C=C[C@]4(C)C3CC[C@@]21C (some centres undefined)
III = CCCCCCCN(C=O)[C@H]1CCC2C3CC[C@H]4N(C)C(=O)CC[C@]4(C)C3CC[C@@]21C (some centres undefined)
Exam item: In this exercise, place the 3 compounds in ascending sequence of their recorded IC50. Give the labels in the order specified.
Marked response: I, III, II

1 = CCCCCN(C(=O)CCCCBr)[C@H]1CCC2C3CC[C@H]4N(C)C(=O)CC[C@]4(C)C3CC[C@@]21C (some centres undefined)
2 = CN1C(=O)CC[C@@]2(C)C1=CCC1C2CC[C@@]2(C)C1CC[C@@H]2N(C)C=O (some centres undefined)
3 = CN(C=O)[C@H]1CCC2C3CC[C@H]4NC(=O)CC[C@]4(C)C3CC[C@@]21C (some centres undefined)
Exam item: In this exercise, place the 3 compounds in ascending sequence of their recorded IC50. Give the labels in the order specified.
Marked response: 1, 2, 3

A = CC(C)CCN(C=O)[C@H]1CCC2C3CC[C@H]4N(C)C(=O)CC[C@]4(C)C3CC[C@@]21C (some centres undefined)
B = CN(C=O)[C@H]1CCC2C3CC[C@H]4N(C)C(=O)C=C[C@]4(C)C3CC[C@@]21C (some centres undefined)
C = CC(C)CN(C=O)[C@H]1CCC2C3CC[C@H]4N(C)C(=O)CC[C@]4(C)C3CC[C@@]21C (some centres undefined)
D = CC(C)C(=O)N(c1ccc([N+](=O)[O-])cc1)[C@H]1CCC2C3CC[C@H]4N(C)C(=O)CC[C@]4(C)C3CC[C@@]21C (some centres undefined)
E = CCCCCN(C=O)[C@H]1CCC2C3CC[C@H]4N(C)C(=O)CC[C@]4(C)C3CC[C@@]21C (some centres undefined)
Exam item: Please rank these compounds by IC50 in descending order. Give the labels in the order specified.
Marked response: B, D, C, A, E
